meta.source: PubChem BioAssay AID1159580

Assay: chemical genetic growth profiling, strain panel (AID 1159580);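 further: tested at 20 µM; growth read once vehicle control cultures reached saturation at 30 °C; 1 = growth at the plate median or of vehicle wells; lower values mean less growth of the strain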
Conditions: S. cerevisiae deletion strains, growth OD, locus YLR262C, strain YPT6 (second series), hits give low values
Out of some 5,500 compounds screened, about 2,000 (36%) were called active. About 18% were inconclusive and are not listed. The list shows a part of the results.

Compound	normalized growth
COc1cccc2c(C)cc(=O)[nH]c12	0.887
NC(=O)NCCCC(N)C(=O)O (configuration not stated)	1
C[N+](C)(C)CC(O)CC(=O)O (configuration not stated)	1.01
NS(=O)(=O)c1cc(C2(O)NC(=O)c3ccccc32)ccc1Cl (configuration not stated)	1.01
CC(CC(C(N)=O)(c1ccccc1)c1ccccc1)N(C)C (configuration not stated)	0.977
NC(=O)c1ncn([C@@H]2O[C@H](CO)[C@@H](O)[C@H]2O)n1	0.987
COc1ccc(Cl)cc1C(=O)NCCc1ccc(S(=O)(=O)NC(=O)NC2CCCCC2)cc1	0.999
Cc1[nH]ccc2c1[nH]c1cc(=O)ccc12	0.998
CC/C(=C(/CC)c1ccc(O)cc1)c1ccc(O)cc1	0.485
CC(C)N(CCC(C(N)=O)(c1ccccc1)c1ccccn1)C(C)C (configuration not stated)	0.0974
C[C@@H]1O[C@@H](OC[C@H]2OC(Oc3c(-c4ccc(OCCO)c(OCCO)c4)oc4cc(OCCO)cc(O)c4c3=O)[C@H](O)[C@@H](O)[C@@H]2O)[C@H](O)[C@H](O)[C@H]1O (some centres not stated)	0.961
COc1ccc(-c2oc3c(CC=C(C)C)c(O[C@@H]4O[C@H](CO)[C@@H](O)[C@H](O)[C@H]4O)cc(O)c3c(=O)c2O[C@@H]2O[C@@H](C)[C@H](O)[C@@H](O)[C@H]2O)cc1	1.05
C=C[C@H]1CN2CC[C@H]1C[C@@H]2[C@@H](OC(=O)OCC)c1ccnc2ccc(OC)cc12	1
CC(C)[N+](C)(CCC(C(N)=O)(c1ccccc1)c1ccccc1)C(C)C	1
COc1c2ccoc2cc2oc(=O)ccc12	1.09
CC(=O)OC(C)C[N+](C)(C)C (configuration not stated)	0.994
CCOCN(C(=O)CCl)c1c(C)cccc1CC	0.969
COc1cc(OC)c2ccc(=O)oc2c1	0.97
CCC(c1ccc(O)cc1)C(CC)c1ccc(O)cc1 (configuration not stated)	0.396
COc1cc(OC)c2c(=O)c(O)c(-c3ccc(OC)c(OC)c3)oc2c1	0.655
O=C1[O][Bi][O]c2ccccc21	1.06
COc1ccc(-c2cc(=O)c3c(O)cc(O[C@H]4O[C@H](CO[C@@H]5O[C@@H](C)[C@H](O)[C@@H](O)[C@H]5O)[C@@H](O)[C@H](O)[C@H]4O)cc3o2)cc1	0.988
